# Tested on: LNCap prostate tumor cells
# protocol.text: In vitro cytotoxicity, Alamar Blue assay, LNCaP cell kill in 72 hrs
# Assay type: cell-based
# run.conditions: Table 3, 3 days, TFA salt of cytotoxic agent unless otherwise indicated, read-out: LNCaP Cell Kill in 72 HRS EC5O
measured.endpoint: EC50 (nM)
Write the value in nM as a bare number.

Study these solved cases before continuing.
CC[C@]1(O)C[C@@H]2CN(CCc3c([nH]c4ccccc34)[C@@](C(=O)OC)(c3cc4c(cc3OC)N(C)[C@H]3[C@@](O)(C(=O)NC5CCCCC5O)[C@H](O)[C@]5(CC)C=CCN6CC[C@]43[C@@H]65)C2)C1 (single isomer, unassigned; isomer a) [(trans-2-hydroxyl)cyclohexylamine-(dAc)-VIN, Isomer A]; 100
CCOC(=O)[C@H](CC1CC1)NC(=O)[C@@]1(O)[C@H](O)[C@]2(CC)C=CCN3CC[C@@]4(c5cc([C@@]6(C(=O)OC)C[C@H]7CN(CCc8c6[nH]c6ccccc86)C[C@](O)(CC)C7)c(OC)cc5N(C)[C@@H]14)[C@@H]32 [L-cyclopropyl-alainine-OEt-(dAc)-VIN]; 1400
CCC1(O)CC2CN(CCc3c([nH]c4ccccc34)C(C(=O)OC)(c3cc4c(cc3OC)N(C)C3C(O)(C(=O)NC(C)C(O)c5cccc(OC)c5)C(O)C5(CC)C=CCN6CCC43C65)C2)C1 (centres unmarked) [3-methoxy-norephedrine-(dAc)-VIN]; 1800
CC[C@]1(O)C[C@@H]2CN(CCc3c([nH]c4ccccc34)[C@@](C(=O)OC)(c3cc4c(cc3OC)N(C)[C@H]3[C@@](O)(C(=O)NC(CO)c5ccccc5)[C@H](O)[C@]5(CC)C=CCN6CC[C@]43[C@@H]65)C2)C1 (some centres unmarked) [Phenylglyinol-(dAc)-VIN]; 700
CC[C@]1(O)C[C@@H]2CN(CCc3c([nH]c4ccccc34)[C@@](C(=O)OC)(c3cc4c(cc3OC)N(C)[C@H]3[C@@](O)(C(=O)NC5CCCCC5O)[C@H](O)[C@]5(CC)C=CCN6CC[C@]43[C@@H]65)C2)C1 (single isomer, unassigned; isomer b) [(trans-2-hydroxyl)cyclohexylamino-(dAc)-VIN, Isomer B]; 800

Q. So what EC50 did CC[C@]1(O)C[C@@H]2CN(CCc3c([nH]c4ccccc34)[C@@](C(=O)OC)(c3cc4c(cc3OC)N(C)[C@H]3[C@@](O)(C(=O)N[C@H](CO)CC5CCCCC5)[C@H](O)[C@]5(CC)C=CCN6CC[C@]43[C@@H]65)C2)C1 [L-cyclolhexyl-alaninol-(dAc)-VIN] get with LNCap prostate tumor cells?
A. 1000

Q. Now the same for CC[C@]1(O)C[C@@H]2CN(CCc3c([nH]c4ccccc34)[C@@](C(=O)OC)(c3cc4c(cc3OC)N(C)[C@H]3[C@@](O)(C(=O)N[C@H](CO)Cc5ccccc5)[C@H](O)[C@]5(CC)C=CCN6CC[C@]43[C@@H]65)C2)C1 [L-phenylalaninol-(dAc)-VIN]
A. 500

Q. Now the same for CC[C@]1(O)C[C@@H]2CN(CCc3c([nH]c4ccccc34)[C@@](C(=O)OC)(c3cc4c(cc3OC)N(C)[C@H]3[C@@](O)(C(=O)N5CCCC(O)C5)[C@H](O)[C@]5(CC)C=CCN6CC[C@]43[C@@H]65)C2)C1 (single isomer, unassigned; isomer b) [3-hydroxyl-piperidine-(dAc)-VIN, isomer B]
A. 500

Q. Now the same for CC[C@]1(O)C[C@@H]2CN(CCc3c([nH]c4ccccc34)[C@@](C(=O)OC)(c3cc4c(cc3OC)N(C)[C@H]3[C@@](O)(C(=O)OC)[C@H](O)[C@]5(CC)C=CCN6CC[C@]43[C@@H]65)C2)C1 [(dAc)-VINBLASTINE, desacetylvinblastine, reference compound]
A. 300

Q. Now the same for CC[C@]1(O)C[C@@H]2CN(CCc3c([nH]c4ccccc34)[C@@](C(=O)OC)(c3cc4c(cc3OC)N(C)[C@H]3[C@@](O)(C(=O)N5CCC(O)C5)[C@H](O)[C@]5(CC)C=CCN6CC[C@]43[C@@H]65)C2)C1 (some centres unmarked) [3-hydroxylpyrrolidine-(dAc)-VIN]
A. 200

Q. Now the same for CC[C@]1(O)C[C@@H]2CN(CCc3c([nH]c4ccccc34)[C@@](C(=O)OC)(c3cc4c(cc3OC)N(C)[C@H]3[C@@](O)(C(=O)NCC(C)O)[C@H](O)[C@]5(CC)C=CCN6CC[C@]43[C@@H]65)C2)C1 (some centres unmarked) [2-hydroxylpropylamino-(dAc)-VIN]
A. 1200

Q. Now the same for CC[C@H](C)[C@@H](CO)NC(=O)[C@@]1(O)[C@H](O)[C@]2(CC)C=CCN3CC[C@@]4(c5cc([C@@]6(C(=O)OC)C[C@H]7CN(CCc8c6[nH]c6ccccc86)C[C@](O)(CC)C7)c(OC)cc5N(C)[C@@H]14)[C@@H]32 [L-isoleucinol-(dAc)-VIN]
A. 900

Q. Now the same for CC[C@]1(O)C[C@@H]2CN(CCc3c([nH]c4ccccc34)[C@@](C(=O)OC)(c3cc4c(cc3OC)N(C)[C@H]3[C@@](O)(C(=O)N[C@H](CO)CC(C)C)[C@H](O)[C@]5(CC)C=CCN6CC[C@]43[C@@H]65)C2)C1 [L-leucinol-(dAc)-VIN]
A. 700

Q. Now the same for CC[C@]1(O)C[C@@H]2CN(CCc3c([nH]c4ccccc34)[C@@](C(=O)OC)(c3cc4c(cc3OC)N(C)[C@H]3[C@@](O)(C(=O)NC(c5ccccc5)C(O)c5ccccc5)[C@H](O)[C@]5(CC)C=CCN6CC[C@]43[C@@H]65)C2)C1 (some centres unmarked) [1,2-diPhenylethanolamino-(dAc)-VIN]
A. 2200

====

# Test system: LNCap prostate tumor cells
# protocol.text: In vitro cytotoxicity, Alamar Blue assay, LNCaP cell kill in 72 hrs
# Assay type: cell-based
# run.conditions: Table 3, 3 days, TFA salt of cytotoxic agent unless otherwise indicated, read-out: LNCaP Cell Kill in 72 HRS EC5O
Readings of EC50 for the listed compounds
Write the value in nM as a bare number.

CC[C@]1(O)C[C@@H]2CN(CCc3c([nH]c4ccccc34)[C@@](C(=O)OC)(c3cc4c(cc3OC)N(C)[C@H]3[C@@](O)(C(=O)NCC5(O)CCCCC5)[C@H](O)[C@]5(CC)C=CCN6CC[C@]43[C@@H]65)C2)C1 [1-hydroxylcyclohexylmethyamino-(dAc)-VIN]; 500
CC[C@]1(O)C[C@@H]2CN(CCc3c([nH]c4ccccc34)[C@@](C(=O)OC)(c3cc4c(cc3OC)N(C)[C@H]3[C@@](O)(C(=O)NC(CO)CO)[C@H](O)[C@]5(CC)C=CCN6CC[C@]43[C@@H]65)C2)C1; 800
CCC1(O)CC2CN(CCc3c([nH]c4ccccc34)C(C(=O)OC)(c3cc4c(cc3OC)N(C)C3C(O)(C(=O)NC(C)C(O)c5ccccc5)C(O)C5(CC)C=CCN6CCC43C65)C2)C1 (single isomer, unassigned; isomer b) [norephedrine-(dAc)-VIN, isomer B]; 200

Moving on to another compound below.
Q. So what EC50 did CC[C@]1(O)C[C@@H]2CN(CCc3c([nH]c4ccccc34)[C@@](C(=O)OC)(c3cc4c(cc3OC)N(C)[C@H]3[C@@](O)(C(=O)N5CCCC(O)C5)[C@H](O)[C@]5(CC)C=CCN6CC[C@]43[C@@H]65)C2)C1 (single isomer, unassigned; isomer a) [3-hydroxyl-piperidine-(dAc)-VIN, isomer A] get with LNCap prostate tumor cells?
A. 500
